The reported measurements were obtained from patent US10196425B2.

Target: MC5R (Homo sapiens, UniProt P33032)
Sequence (P33032 whole entry): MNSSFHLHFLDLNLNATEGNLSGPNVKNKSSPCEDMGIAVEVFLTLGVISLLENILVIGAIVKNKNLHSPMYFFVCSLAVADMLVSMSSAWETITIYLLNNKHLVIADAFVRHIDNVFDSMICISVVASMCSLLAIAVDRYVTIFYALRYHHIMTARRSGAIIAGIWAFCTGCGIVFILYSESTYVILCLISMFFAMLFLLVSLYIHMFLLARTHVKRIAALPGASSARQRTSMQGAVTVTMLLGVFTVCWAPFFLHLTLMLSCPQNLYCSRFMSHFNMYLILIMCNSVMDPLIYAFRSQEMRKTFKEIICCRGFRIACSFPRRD
Experiment: cAMP assay (β-galactosidase reporter, cAMP Hunter), MC5R
Type: cell-based
Conditions: EC50(MC5R)/EC50(MC4R)
Bridge positions count the residues as written; N and C are the ends. Square brackets hold non-standard residues; d marks the D form. Peptide text beside a SMILES is read from it. dPhe(4-F) = N[C@H](Cc1ccc(F)cc1)C(=O)O
assay-metric: Ratios of EC50 values MC 5/4

// solved cases for Ratios of EC50 values MC 5/4 follow
CC(=O)N[C@@H](CCCNC(=N)N)C(=O)N[C@H]1CSSC[C@@H](C(N)=O)NC(=O)[C@H](Cc2c[nH]c3ccccc23)NC(=O)[C@H](CCCNC(=N)N)NC(=O)[C@@H](Cc2ccccc2)NC(=O)[C@H](Cc2cncn2C)NC(=O)[C@@H](C)NC1=O	945
CC(=O)N[C@@H](CCCNC(=N)N)C(=O)N[C@H]1CSSC[C@@H](C(N)=O)NC(=O)[C@H](Cc2c[nH]c3ccccc23)NC(=O)[C@H](CCCNC(=N)N)NC(=O)[C@@H](Cc2ccc(F)cc2)NC(=O)[C@@H]2CCCN2C(=O)[C@@H](C)NC1=O [Compound 14] (Ac-RC[dA]P[dPhe(4-F)]RWC-NH2; disulfide 2-8)	12

(1) CC(=O)N[C@@H](CCCNC(=N)N)C(=O)N[C@H]1CSSC[C@@H](C(N)=O)NC(=O)[C@H](Cc2c[nH]c3ccccc23)NC(=O)[C@H](CCCNC(=N)N)NC(=O)[C@@H](Cc2ccccc2)NC(=O)[C@H](Cc2c[nH]cn2)NC(=O)[C@@H](C(C)C)NC1=O
(2) CC(=O)N[C@@H](CCCNC(=N)N)C(=O)N[C@H]1CSSC[C@@H](C(N)=O)NC(=O)[C@H](Cc2c[nH]c3ccccc23)NC(=O)[C@H](CCCNC(=N)N)NC(=O)[C@@H](Cc2ccccc2)NC(=O)[C@H](Cc2c[nH]cn2)NC(=O)[C@@H](CC(C)C)NC1=O
QUERY: Thinking about recorded Ratios of EC50 values MC 5/4 values, which is higher, 1 or 2 ? Your choice should be expressed through its label.
RESULT: 1
(1: 584, 2: 130)

----------
Below, each entry is listed with its recorded Ratios of EC50 values MC ¼.
Molecular target: MC1R (Homo sapiens, UniProt Q01726)
Sequence (Q01726 whole entry): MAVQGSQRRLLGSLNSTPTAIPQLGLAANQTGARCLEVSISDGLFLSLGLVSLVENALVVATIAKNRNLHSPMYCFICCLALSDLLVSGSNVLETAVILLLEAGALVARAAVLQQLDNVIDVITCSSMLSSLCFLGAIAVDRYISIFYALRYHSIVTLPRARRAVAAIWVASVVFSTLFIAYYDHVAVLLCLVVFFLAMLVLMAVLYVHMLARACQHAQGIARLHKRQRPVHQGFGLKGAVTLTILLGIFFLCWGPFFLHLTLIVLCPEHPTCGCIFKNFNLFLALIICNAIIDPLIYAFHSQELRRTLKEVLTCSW
Assay: cAMP assay (β-galactosidase reporter, cAMP Hunter), MC1R
Format: cell-based
Conditions: EC50(MC1R)/EC50(MC4R)
Bridge positions count the residues as written; N and C are the ends. Square brackets hold non-standard residues; d marks the D form. Peptide text beside a SMILES is read from it. dPhe(4-F) = N[C@H](Cc1ccc(F)cc1)C(=O)O
Write the number on its own, no unit after it.

CC(=O)N[C@@H](CCCNC(=N)N)C(=O)N[C@H]1CSSC[C@@H](C(N)=O)NC(=O)[C@H](Cc2c[nH]c3ccccc23)NC(=O)[C@H](CCCNC(=N)N)NC(=O)[C@@H](Cc2ccccc2)NC(=O)[C@H](Cc2c[nH]cn2)NC(=O)[C@@H](CC(C)C)NC1=O [Compound 1]	0.68
CC(=O)N[C@@H](CCCNC(=N)N)C(=O)N[C@H]1CSSC[C@@H](C(N)=O)NC(=O)[C@H](Cc2c[nH]c3ccccc23)NC(=O)[C@H](CCCNC(=N)N)NC(=O)[C@@H](Cc2ccccc2)NC(=O)[C@H](CC(N)=O)NC(=O)[C@@H](C)NC1=O [Compound 9] (Ac-RC[dA]N[dF]RWC-NH2; disulfide 2-8)	90
CC(=O)N[C@@H](CCCNC(=N)N)C(=O)N[C@H]1CSSC[C@@H](C(N)=O)NC(=O)[C@H](Cc2c[nH]c3ccccc23)NC(=O)[C@H](CCCNC(=N)N)NC(=O)[C@@H](Cc2ccccc2)NC(=O)[C@H](CCC(N)=O)NC(=O)[C@@H](C)NC1=O [Compound 8] (Ac-RC[dA]Q[dF]RWC-NH2; disulfide 2-8)	40
CC(=O)N[C@@H](CCCNC(=N)N)C(=O)N[C@H]1CSSC[C@@H](C(N)=O)NC(=O)[C@H](Cc2c[nH]c3ccccc23)NC(=O)[C@H](CCCNC(=N)N)NC(=O)[C@@H](Cc2ccccc2)NC(=O)[C@@H]2CCCN2C(=O)[C@@H](C)NC1=O [Compound 13] (Ac-RC[dA]P[dF]RWC-NH2; disulfide 2-8)	5

QUERY: Please give the documented Ratios of EC50 values MC ¼ of CC(=O)N[C@@H](CCCNC(=N)N)C(=O)N[C@H]1CSSC[C@@H](C(N)=O)NC(=O)[C@H](Cc2c[nH]c3ccccc23)NC(=O)[C@H](CCCNC(=N)N)NC(=O)[C@@H](Cc2ccc(F)cc2)NC(=O)[C@@H]2CCCN2C(=O)[C@@H](C)NC1=O [Compound 14] (Ac-RC[dA]P[dPhe(4-F)]RWC-NH2; disulfide 2-8)
RESULT: 7

----------
Biological target: MC3R (Homo sapiens, UniProt P41968)
Sequence (P41968 whole entry): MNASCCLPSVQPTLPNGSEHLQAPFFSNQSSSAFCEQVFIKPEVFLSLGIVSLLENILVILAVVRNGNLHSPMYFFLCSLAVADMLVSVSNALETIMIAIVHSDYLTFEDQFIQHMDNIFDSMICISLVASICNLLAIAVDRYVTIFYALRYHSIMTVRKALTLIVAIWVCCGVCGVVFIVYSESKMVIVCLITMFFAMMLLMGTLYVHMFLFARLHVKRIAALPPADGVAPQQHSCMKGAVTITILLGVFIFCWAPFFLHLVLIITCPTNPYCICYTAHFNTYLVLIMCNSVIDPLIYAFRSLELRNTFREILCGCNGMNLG
Assay: cAMP assay (β-galactosidase reporter, cAMP Hunter), MC3R
Format: cell-based
Details: EC50(MC3R)/EC50(MC4R)
Bridge positions count the residues as written; N and C are the ends. Square brackets hold non-standard residues; d marks the D form. Peptide text beside a SMILES is read from it. Pen = CC(C)(S)[C@H](N)C(=O)O; hCys = N[C@@H](CCS)C(=O)O
Below, each entry is listed with its recorded Ratios of EC50 values MC ¾.
Write the number on its own, no unit after it.

QUERY: Please give the documented Ratios of EC50 values MC ¾ of CC(=O)N[C@@H](CCCNC(=N)N)C(=O)N[C@H]1CCSSC(C)(C)[C@@H](C(N)=O)NC(=O)[C@H](Cc2c[nH]c3ccccc23)NC(=O)[C@H](CCCNC(=N)N)NC(=O)[C@@H](Cc2ccccc2)NC(=O)[C@@H](C)NC1=O [Compound 17] (Ac-R[hCys][dA][dF]RW[Pen]-NH2; disulfide 2-7)
RESULT: 17

QUERY: Please give the documented Ratios of EC50 values MC ¾ of CC(=O)N[C@@H](CCCNC(=N)N)C(=O)N[C@H]1CSSC[C@@H](C(N)=O)NC(=O)[C@H](Cc2c[nH]c3ccccc23)NC(=O)[C@H](CCCNC(=N)N)NC(=O)[C@@H](Cc2ccccc2)NC(=O)[C@H](CC(N)=O)NC(=O)[C@@H](C)NC1=O [Compound 9] (Ac-RC[dA]N[dF]RWC-NH2; disulfide 2-8)
RESULT: 30

----------
Target: MC1R (Homo sapiens)
Assay: cAMP assay (β-galactosidase reporter, cAMP Hunter), MC1R
Assay type: cell-based
Settings: EC50(MC1R)/EC50(MC4R)
Bridge positions count the residues as written; N and C are the ends. Square brackets hold non-standard residues; d marks the D form. Peptide text beside a SMILES is read from it. hCys = N[C@@H](CCS)C(=O)O
assay-metric: Ratios of EC50 values MC ¼
Write the number on its own, no unit after it.

QUERY: Please give the documented Ratios of EC50 values MC ¼ of CC(=O)N[C@@H](CCCNC(=N)N)C(=O)N[C@H]1CSSC[C@@H](C(N)=O)NC(=O)[C@H](Cc2c[nH]c3ccccc23)NC(=O)[C@H](CCCNC(=N)N)NC(=O)[C@@H](Cc2ccccc2)NC(=O)[C@H](Cc2c[nH]cn2)NC(=O)[C@@H](C(C)(C)C)NC1=O
RESULT: 1

QUERY: Please give the documented Ratios of EC50 values MC ¼ of CC(=O)N[C@@H](CCCNC(=N)N)C(=O)N[C@H]1CCSSC[C@@H](C(N)=O)NC(=O)[C@H](Cc2c[nH]c3ccccc23)NC(=O)[C@H](CCCNC(=N)N)NC(=O)[C@@H](Cc2ccccc2)NC(=O)[C@H](C)NC1=O [Compound 15] (Ac-R[hCys]A[dF]RWC-NH2; disulfide 2-7)
RESULT: 15

----------
Molecular target: MC5R (Homo sapiens)
Assay: cAMP assay (β-galactosidase reporter, cAMP Hunter), MC5R
Assay type: cell-based
Conditions: EC50(MC5R)/EC50(MC4R)
Bridge positions count the residues as written; N and C are the ends. Square brackets hold non-standard residues; d marks the D form. Peptide text beside a SMILES is read from it. Pen = CC(C)(S)[C@H](N)C(=O)O; hCys = N[C@@H](CCS)C(=O)O
assay-metric: Ratios of EC50 values MC 5/4

// solved cases for Ratios of EC50 values MC 5/4 follow
CC(=O)N[C@@H](CCCNC(=N)N)C(=O)N[C@H]1CSSC[C@@H](C(N)=O)NC(=O)[C@H](Cc2c[nH]c3ccccc23)NC(=O)[C@H](CCCNC(=N)N)NC(=O)[C@@H](Cc2ccccc2)NC(=O)[C@H](Cc2c[nH]c3ccccc23)NC(=O)[C@@H](C)NC1=O [Compound 7] (Ac-RC[dA]W[dF]RWC-NH2; disulfide 2-8)	7
CC(=O)N[C@@H](CCCNC(=N)N)C(=O)N[C@H]1CSSC[C@@H](C(N)=O)NC(=O)[C@H](Cc2c[nH]c3ccccc23)NC(=O)[C@H](CCCNC(=N)N)NC(=O)[C@@H](Cc2ccccc2)NC(=O)[C@@H]2CCCN2C(=O)[C@@H](C)NC1=O [Compound 13] (Ac-RC[dA]P[dF]RWC-NH2; disulfide 2-8)	13
CC(=O)N[C@@H](CCCNC(=N)N)C(=O)N[C@H]1CSSC[C@@H](C(N)=O)NC(=O)[C@H](Cc2c[nH]c3ccccc23)NC(=O)[C@H](CCCNC(=N)N)NC(=O)[C@@H](Cc2ccccc2)NC(=O)[C@H](CCC(N)=O)NC(=O)[C@@H](C)NC1=O [Compound 8] (Ac-RC[dA]Q[dF]RWC-NH2; disulfide 2-8)	155
CC(=O)N[C@@H](CCCNC(=N)N)C(=O)N[C@H]1CCSSC(C)(C)[C@@H](C(N)=O)NC(=O)[C@H](Cc2c[nH]c3ccccc23)NC(=O)[C@H](CCCNC(=N)N)NC(=O)[C@@H](Cc2ccccc2)NC(=O)[C@@H](C)NC1=O [Compound 17] (Ac-R[hCys][dA][dF]RW[Pen]-NH2; disulfide 2-7)	159

(1) CC[C@@H](C)[C@H]1NC(=O)[C@@H](NC(=O)[C@H](CCCNC(=N)N)NC(C)=O)CSSC[C@@H](C(N)=O)NC(=O)[C@H](Cc2c[nH]c3ccccc23)NC(=O)[C@H](CCCNC(=N)N)NC(=O)[C@@H](Cc2ccccc2)NC(=O)[C@H](Cc2c[nH]cn2)NC1=O
(2) CC(=O)N[C@@H](CCCNC(=N)N)C(=O)N[C@H]1CSSC[C@@H](C(N)=O)NC(=O)[C@H](Cc2c[nH]c3ccccc23)NC(=O)[C@H](CCCNC(=N)N)NC(=O)[C@@H](Cc2ccccc2)NC(=O)[C@H](Cc2c[nH]cn2)NC(=O)[C@@H](C(C)(C)C)NC1=O
QUERY: Thinking about recorded Ratios of EC50 values MC 5/4 values, which is higher, 1 or 2 ? Your choice should be expressed through its label.
RESULT: 2
(2: 930, 1: 420)
